Entries annotated with measured PBM binding z-score
# System: FXR:RXRa (NR concentration 270 nM, RXRa partner concentration 90 nM)
# assay-overview: PBM binding z-score (relative to random genomic background probes); higher = stronger binding; sequences stand for … in GC…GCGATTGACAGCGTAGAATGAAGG
Write the value as a bare number.

Solved cases (2 shown):
macromolecule-sequence | PBM binding z-score
GCGACTGGGGCAAAGCAGGTTCCCATAAGGTTGG | -0.34
ACTTACGGGTCAACGAGGTAATAGCACGCGTATA | 6.86

The value of PBM binding z-score recorded for "CGGACTGGGGCAGAAAGGTTACCATACCATCCGG" when tested on FXR:RXRa (NR concentration 270 nM, RXRa partner concentration 90 nM) reads 0.574

The value of PBM binding z-score recorded for "CAAACTAGGTCGCAGAGGTCAAAGTCCGTGCGTA" when tested on FXR:RXRa (NR concentration 270 nM, RXRa partner concentration 90 nM) reads 5.75

The value of PBM binding z-score recorded for "GCTATTAGTTGAAAGGCCAACCGAATGATTCTCG" when tested on FXR:RXRa (NR concentration 270 nM, RXRa partner concentration 90 nM) reads 0.0459
